From: BindingDB's records for PubMed 20126400

Heads up, these molecules all have pKi values measured for D(1A) dopamine receptor (Homo sapiens).
pKi: −log10 of the molar value.
measured-quantity: pKi

• CN(C)CCc1c[nH]c2cc(F)ccc12 [6-f-dmt] = 6.26
• C[C@@H]1C[C@@H](C)N1C(=O)C1C=C2c3cccc4[nH]cc(c34)C[C@H]2N(C)C1 (stereo partly drawn) [rr-2b] = 6.47
• C[C@@H]1C[C@@H](C)N1C(=O)C1C=C2c3cccc4[nH]cc(c34)C[C@H]2N(C)C1 (stereo partly drawn) [ss-2c] = 6.53

* * *

# measured-target: 5-hydroxytryptamine receptor 1D (UniProt F1MMU1)
# Sequence (F1MMU1 whole entry): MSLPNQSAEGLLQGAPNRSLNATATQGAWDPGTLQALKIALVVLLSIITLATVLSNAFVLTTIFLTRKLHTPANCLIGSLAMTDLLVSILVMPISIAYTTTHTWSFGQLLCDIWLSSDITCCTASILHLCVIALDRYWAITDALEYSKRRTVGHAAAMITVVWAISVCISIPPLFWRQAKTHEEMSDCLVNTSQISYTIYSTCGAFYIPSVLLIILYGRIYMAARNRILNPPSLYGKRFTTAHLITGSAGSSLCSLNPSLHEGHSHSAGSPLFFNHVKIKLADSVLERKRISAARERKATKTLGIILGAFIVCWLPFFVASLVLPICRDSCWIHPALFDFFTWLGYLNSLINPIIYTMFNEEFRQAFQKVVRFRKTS
measured-quantity: Ki

• CC[C@H]1C[C@@H]2C[C@H]3c4[nH]c5ccc(OC)cc5c4CCN(C2)[C@@H]13 = > 100 µM

* * *

Observed Ki for Alpha-1B adrenergic receptor (Homo sapiens), reported per entry below.
measured-quantity: Ki

* CCSc1cc(OC)c(CCN)cc1OC | > 10 µM
* C[C@@H]1C[C@@H](C)N1C(=O)C1C=C2c3cccc4[nH]cc(c34)C[C@H]2N(C)C1 (stereo partly specified) | > 10 µM
* COc1cc(OC)c(OC)cc1CC(C)N (stereo unspecified) | > 10 µM
* CN(C)CCc1c[nH]c2cc(F)ccc12 | > 10 µM
* NCCc1c2c(c(Br)c3c1OCC3)OCC2 | > 10 µM
* CCc1cc(OC)c(CCN)cc1OC | > 10 µM

* * *

# measured-target: D(1A) dopamine receptor (Homo sapiens)
# Sequence (P21728 whole entry): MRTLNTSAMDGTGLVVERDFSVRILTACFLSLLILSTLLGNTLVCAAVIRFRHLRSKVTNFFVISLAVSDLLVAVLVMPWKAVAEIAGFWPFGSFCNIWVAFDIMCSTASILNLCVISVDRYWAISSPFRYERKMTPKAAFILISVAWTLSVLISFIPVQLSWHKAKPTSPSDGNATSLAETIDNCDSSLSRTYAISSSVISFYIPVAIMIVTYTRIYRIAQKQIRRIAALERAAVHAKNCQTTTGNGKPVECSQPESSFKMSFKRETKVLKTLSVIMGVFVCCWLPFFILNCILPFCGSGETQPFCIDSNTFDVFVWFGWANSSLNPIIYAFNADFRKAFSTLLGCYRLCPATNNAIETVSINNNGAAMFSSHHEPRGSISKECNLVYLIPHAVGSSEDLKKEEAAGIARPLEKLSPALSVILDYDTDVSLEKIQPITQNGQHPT
measured-quantity: Ki

- COc1cc(CC(C)N)cc(OC)c1OC (centres undefined): > 10 µM
- CC[C@H]1C[C@@H]2C[C@H]3c4[nH]c5ccc(OC)cc5c4CCN(C2)[C@@H]13: > 10 µM
- COc1cc(CC(C)N)c(OC)cc1C (centres undefined): > 10 µM
- COc1cc(CC(C)N)c(OC)cc1Br (centres undefined): > 10 µM
- CC(C)N(CCc1c[nH]c2ccccc12)C(C)C [dipt]: > 10 µM
- CC(N)Cc1ccc2c(c1)OCO2 (centres undefined): > 10 µM
- C[C@@H]1C[C@H](C)N1C(=O)C1C=C2c3cccc4[nH]cc(c34)C[C@H]2N(C)C1 (stereo partly drawn) [cis-2a]: 0.232 µM
- COc1ccc2[nH]cc(CCN(C)C(C)C)c2c1 [5-meo-mipt]: > 10 µM
- COc1ccc2[nH]cc(CCN(C)C)c2c1 [3-(2-DIMETHYLAMINOETHYL)-5-METHOXYINDOLE]: 0.0795 µM
- CCSc1cc(OC)c(CC(N)CC)cc1OC (centres undefined): > 10 µM
- COc1cc(OC)c(OC)cc1CC(C)N (centres undefined): > 10 µM
- COc1ccc2[nH]cc(CCN(C(C)C)C(C)C)c2c1 [5-meo-dipt]: > 10 µM
- CCOc1cc(OC)c(CC(C)N)cc1OC (centres undefined): > 10 µM
- CNC(C)Cc1ccc2c(c1)OCO2 (centres undefined) [mdma]: > 10 µM
- CCSc1cc(OC)c(CCN)cc1OC [2C-T-2]: > 10 µM
- CCCN(CCC)CCc1c[nH]c2ccccc12 [dpt]: > 10 µM
- CCc1cc(OC)c(CC(C)N)cc1OC (centres undefined): > 10 µM
- COC(=O)[C@@H]1C[C@H](OC(C)=O)C(=O)[C@H]2[C@@]1(C)CC[C@H]1C(=O)O[C@H](c3ccoc3)C[C@]21C: > 10 µM
- CCSc1cc(OC)c(CC(C)N)cc1OC (centres undefined): > 10 µM
- CCN(CC)C(=O)[C@@H]1C=C2c3cccc4[nH]cc(c34)C[C@H]2N(C)C1 [[N-methyl-3H]LSD]: 0.177 µM
- COc1cc(CCN)c(OC)cc1Br: > 10 µM
- CCc1cc(OC)c(CCN)cc1OC: > 10 µM
- COc1cc(CCN)cc(OC)c1OC [3,4,5-trimethoxyphenylethylamine]: > 10 µM
- NCCc1c2c(c(Br)c3c1OCC3)OCC2: 4.96 µM
